Catalogue of hERG current change (%, negative = inhibition) at 10uM readings, one per entry.
tested.on: human ether-à-go-go-related gene (hERG) potassium channel (human, UniProt Q12809)
Sequence (Q12809 whole entry, looked up): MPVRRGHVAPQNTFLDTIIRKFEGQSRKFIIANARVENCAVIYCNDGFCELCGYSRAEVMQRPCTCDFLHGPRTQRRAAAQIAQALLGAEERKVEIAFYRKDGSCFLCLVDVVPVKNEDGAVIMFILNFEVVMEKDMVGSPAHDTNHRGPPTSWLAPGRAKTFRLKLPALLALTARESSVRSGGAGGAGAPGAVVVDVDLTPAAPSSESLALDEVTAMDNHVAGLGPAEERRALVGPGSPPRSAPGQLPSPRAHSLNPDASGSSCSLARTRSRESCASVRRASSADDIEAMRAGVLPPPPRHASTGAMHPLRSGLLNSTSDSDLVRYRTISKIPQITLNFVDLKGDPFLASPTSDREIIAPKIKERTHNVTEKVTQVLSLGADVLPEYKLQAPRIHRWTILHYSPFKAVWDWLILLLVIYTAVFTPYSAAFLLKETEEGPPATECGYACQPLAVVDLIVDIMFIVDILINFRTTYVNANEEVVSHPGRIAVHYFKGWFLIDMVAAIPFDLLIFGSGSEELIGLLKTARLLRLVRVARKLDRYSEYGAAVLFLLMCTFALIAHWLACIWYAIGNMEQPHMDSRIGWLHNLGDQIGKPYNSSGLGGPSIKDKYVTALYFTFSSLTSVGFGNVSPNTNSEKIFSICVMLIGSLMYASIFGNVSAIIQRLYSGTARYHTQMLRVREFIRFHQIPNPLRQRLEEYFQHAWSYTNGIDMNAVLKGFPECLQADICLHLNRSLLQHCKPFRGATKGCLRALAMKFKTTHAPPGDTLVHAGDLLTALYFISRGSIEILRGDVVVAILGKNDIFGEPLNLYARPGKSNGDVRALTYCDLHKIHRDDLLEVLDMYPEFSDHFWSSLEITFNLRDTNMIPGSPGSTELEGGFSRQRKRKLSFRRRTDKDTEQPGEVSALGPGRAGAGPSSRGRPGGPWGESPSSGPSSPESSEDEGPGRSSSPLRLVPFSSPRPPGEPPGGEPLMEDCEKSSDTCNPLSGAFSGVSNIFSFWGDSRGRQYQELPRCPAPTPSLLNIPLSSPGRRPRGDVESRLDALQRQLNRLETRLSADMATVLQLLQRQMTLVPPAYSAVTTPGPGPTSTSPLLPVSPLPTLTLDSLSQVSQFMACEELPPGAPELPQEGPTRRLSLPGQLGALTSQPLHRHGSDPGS
test: primary screen, population patch clamp on CHO cells stably expressing hERG; higher = less effect of the substance;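 note: peak tail current of the secondary pulse compared with the same well before compound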
Screen size: about 310,000 compounds; about 14,000 (4.5%) showed an effect of 50% or more. Effects have a minus sign here. Only a selection was taken, and strong results are over-represented in it overall.
// note: answer is a bare numeric in %

The following compounds have reported results that may help.
compound	reported.value
CCCn1c2c(c(O)c(C(=O)NCCCN(CC)CC)c1=O)CCCC2.Cl	-55
CC1CCc2cc(F)cc3c(O)c(C(=O)NCC4CCCO4)c(=O)n1c23 (stereo not shown)	-13.4
CCN(CC)CCCNC(=O)c1c(O)c2cc(F)cc3c2n(c1=O)C(C)CC3.Cl (stereo not shown)	-50.5
COc1ccc(CCNc2ncnc3c2oc2ccccc23)cc1OC.Cl	0.357
CCSc1ccccc1C(=O)NCCCn1ccnc1	10.2
CCN(CC)CCCNC(=O)c1c(O)c2ccccc2n(Cc2ccccc2)c1=O.Cl	-63.8
CC(C)CSc1nnc2c3ccccc3n(C)c2n1	-11.9
COc1cccc(N2C(=O)C3CCCN3C2c2ccc(F)cc2)c1 (stereo not shown)	6.88
CCN(CC)CCNC(=O)c1c(O)c2ccccc2n(Cc2ccccc2)c1=O.Cl	-63

Shifting focus to the compound that follows.
// hERG current change (%, negative = inhibition) at 10uM value for Cc1nc(S(=O)(=O)Cc2ccccc2Cl)nc2c1CCC2 : 24.1
